Quick reference for abundance fitness among some variants
B1: Cytoplasmic polyadenylation element-binding protein 2, residues 513 to 575; numbered along this chain, Q7Z5Q1 (parent)
chain: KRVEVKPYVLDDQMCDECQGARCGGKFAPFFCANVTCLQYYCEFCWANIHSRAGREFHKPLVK

Variants of: B1
Assay: abundance fitness (aPCA) (normalised: wild type 0, dead -1); higher = more abundant; growth selection in yeast, the domain comes from the species named
Conditions: Homo sapiens

Recorded abundance fitness (variant "P7I" ): -1.07

Recorded abundance fitness (variant "I49N" ): -0.221

Recorded abundance fitness (variant "C32M" ): -0.793

Recorded abundance fitness (variant "P29Q" ): 0.074

Recorded abundance fitness (variant "F30R" ): -0.09

Recorded abundance fitness (variant "L61G" ): 0.076

Recorded abundance fitness (variant "V35F" ): -0.115

Recorded abundance fitness (variant "D16F" ): 0.145

Recorded abundance fitness (variant "A47N" ): 0.127

Recorded abundance fitness (variant "F30G" ): -0.582

Recorded abundance fitness (variant "M14T" ): 0.069

Recorded abundance fitness (variant "D16V" ): -0.036

Recorded abundance fitness (variant "Q39E" ): -0.13

Recorded abundance fitness (variant "F44D" ): -0.109

Recorded abundance fitness (variant "Y8K" ): 0.121

Recorded abundance fitness (variant "V9I" ): -0.022

Recorded abundance fitness (variant "Y8G" ): 0.154

The measurements presented in this section are drawn from the Human Domainome abundance scans (Beltran et al. 2025).
